System: E.coli UB1005
PROTOCOL_NOTES: MIC, modified two-fold microtitre broth dilution
Assay type: cell-based, Escherichia coli
MEASUREMENT_CONTEXT: table IIA, non-linear positive-charge modification derivatives
Where no end group is shown, it is not given here.
MEASURED_PARAMETER: MIC E.coli UB1005
Report field: quantity (unit follows the number).

In the examples that follow, each entry is paired with its recorded MIC E.coli UB1005.
substance="RRCPIVVIRVCR-NH2 (cysteine pairing not given here) [Bac R, P-NH2]" result="2 µg/mL"
substance="RICRIVVIRCIR-NH2 (cysteine pairing not given here) [Bac 2I-NH2]" result="4 µg/mL"
substance="RLCPRVRIRVCR-NH2 (cysteine pairing not given here) [Bac 2R, P-NH2]" result="4 µg/mL"
substance="RRLCRIVVIRVCRR [Bac 2R, tested oxidized and reduced]" result="2 µg/mL"
substance="RRRCPIVVIRVCRR [Bac 3R, P, tested oxidized and reduced]" result="2 µg/mL"

IN: Any idea what MIC E.coli UB1005 was measured for KKCPIVVIRVCK [Bac 3K, P, tested oxidized and reduced] ?
OUT: 16 µg/mL

IN: Any idea what MIC E.coli UB1005 was measured for RRRLCPIVIRVCRR [Bac 3R, P, (V), tested oxidized and reduced] ?
OUT: 2 µg/mL

----------
Below: a set of entries, each annotated with reported MIC P. aeruginosa.
Tested on: P.aeruginosa
PROTOCOL_NOTES: MIC, modified two-fold microtitre broth dilution
Assay type: cell-based, Pseudomonas aeruginosa
MEASUREMENT_CONTEXT: Table IIC, linear (Group 2): reduced forms of the peptides; Bac (Oxidized) as comparator
Description: […] The minimal inhibitory concentration (MIC) of peptides was determined by a modified two-fold microtitre broth dilution method modified from that of Steinberg et al (Steinberg, Antimicrob. Agents Chemother. 41:1738, 1997). […] Also the peptides stick to the most readily available (tissue-culture treated polystyrene) 96-well microtitre plates. […]
Respond numerically; units are µg/mL and should not be typed.

IN: Any idea what MIC P. aeruginosa was measured for RRRLCPIVIRVCRR [Bac 3R, P, (V), tested oxidized and reduced] ?
OUT: 32

IN: Any idea what MIC P. aeruginosa was measured for RRLCRIVVIRVCRR [Bac 2R, tested oxidized and reduced] ?
OUT: 16

IN: Any idea what MIC P. aeruginosa was measured for RLCRIVPVIRVCR [Bac P, tested oxidized and reduced] ?
OUT: 32

----------
System: S.typhimurium
PROTOCOL_NOTES: MIC, modified two-fold microtitre broth dilution
Type: cell-based, Salmonella typhimurium
MEASUREMENT_CONTEXT: table IIA, non-linear positive-charge modification derivatives
Where no end group is shown, it is not given here.
Below: a set of entries, each annotated with reported MIC S. typhimurium.
Respond numerically; units are µg/mL and should not be typed.

In the examples that follow, each entry is paired with its recorded MIC S. typhimurium.
substance="RICRIVVIRCIR-NH2 (cysteine pairing not given here) [Bac 2I-NH2]" assay_target=S.typhimurium measured_parameter="MIC S. typhimurium" number=8
substance="RRLCRIVVIRVCRR [Bac 2R, tested oxidized and reduced]" assay_target=S.typhimurium measured_parameter="MIC S. typhimurium" number=4
substance="RRCPIVVIRVCR-NH2 (cysteine pairing not given here) [Bac R, P-NH2]" assay_target=S.typhimurium measured_parameter="MIC S. typhimurium" number=16
substance="RRRCPIVVIRVCRR [Bac 3R, P, tested oxidized and reduced]" assay_target=S.typhimurium measured_parameter="MIC S. typhimurium" number=8
substance="RRRLCPIVIRVCRR [Bac 3R, P, (V), tested oxidized and reduced]" assay_target=S.typhimurium measured_parameter="MIC S. typhimurium" number=8

IN: Request: MIC S. typhimurium, test system S.typhimurium, entry KKCPIVVIRVCK [Bac 3K, P, tested oxidized and reduced]
OUT: 32

IN: Request: MIC S. typhimurium, test system S.typhimurium, entry RLCPRVRIRVCR-NH2 (cysteine pairing not given here) [Bac 2R, P-NH2]
OUT: 32

----------
Below: a set of entries, each annotated with reported MIC Staph. epidermidis.
Test system: Staph. epidermidis
PROTOCOL_NOTES: MIC, modified two-fold microtitre broth dilution
Assay type: cell-based, Staphylococcus epidermidis
MEASUREMENT_CONTEXT: Table IIIB, non-linear positive-charge modification derivatives
Description: […] The minimal inhibitory concentration (MIC) of peptides was determined by a modified two-fold microtitre broth dilution method modified from that of Steinberg et al (Steinberg, Antimicrob. Agents Chemother. 41:1738, 1997). […] Also the peptides stick to the most readily available (tissue-culture treated polystyrene) 96-well microtitre plates. […]
Where no end group is shown, it is not given here.
Respond numerically; units are µg/mL and should not be typed.

substance="RRCPIVVIRVCR-NH2 (cysteine pairing not given here) [Bac R, P-NH2]" number=32

IN: Any idea what MIC Staph. epidermidis was measured for RRLCRIVVIRVCRR [Bac 2R, tested oxidized and reduced] ?
OUT: 8

IN: Any idea what MIC Staph. epidermidis was measured for RRRLCPIVIRVCRR [Bac 3R, P, (V), tested oxidized and reduced] ?
OUT: 16

----------
Here's what we have: Minimal Agglutinating Concentration, Reduced Form numbers for Human Red Blood Cells.
Respond numerically; units are µg/mL and should not be typed.

IN: Request: Minimal Agglutinating Concentration, Reduced Form, test system Human Red Blood Cells, entry RRRLCPIVIRVCRR [Bac 3R, P, (V)]
OUT: 32

IN: Request: Minimal Agglutinating Concentration, Reduced Form, test system Human Red Blood Cells, entry RRRCPIVVIRVCRR [Bac 3R, P]
OUT: 16

----------
Tested on: E.facaelis
PROTOCOL_NOTES: MIC, modified two-fold microtitre broth dilution
Format: cell-based, Enterococcus faecalis
MEASUREMENT_CONTEXT: Table IIIB, non-linear positive-charge modification derivatives
Where no end group is shown, it is not given here.
Below: a set of entries, each annotated with reported MIC E.facaelis.

In the examples that follow, each entry is paired with its recorded MIC E.facaelis.
substance="RRRLCPIVIRVCRR [Bac 3R, P, (V), tested oxidized and reduced]" result="> 64 µg/mL"
substance="RRCPIVVIRVCR-NH2 (cysteine pairing not given here) [Bac R, P-NH2]" result="> 64 µg/mL"
substance="RRLCRIVVIRVCRR [Bac 2R, tested oxidized and reduced]" result="32 µg/mL"
substance="KKCPIVVIRVCK [Bac 3K, P, tested oxidized and reduced]" result="> 64 µg/mL"
substance="RLCPRVRIRVCR-NH2 (cysteine pairing not given here) [Bac 2R, P-NH2]" result="> 32 µg/mL"

IN: Any idea what MIC E.facaelis was measured for RICRIVVIRCIR-NH2 (cysteine pairing not given here) [Bac 2I-NH2] ?
OUT: > 32 µg/mL

IN: Any idea what MIC E.facaelis was measured for RRRCPIVVIRVCRR [Bac 3R, P, tested oxidized and reduced] ?
OUT: 32 µg/mL

----------
System: E.facaelis
PROTOCOL_NOTES: MIC, modified two-fold microtitre broth dilution
Format: cell-based, Enterococcus faecalis
MEASUREMENT_CONTEXT: Table IID, linear (Group 2): reduced forms of the peptides; Bac (Oxidized) as comparator
MEASURED_PARAMETER: MIC E.facaelis (µg/mL)
Respond numerically; units are µg/mL and should not be typed.

seq_string="RLCRIVWVIRVCR [Bac W, tested oxidized and reduced]" measured_parameter="MIC E.facaelis" number=32
seq_string="RRRCPIVVIRVCRR [Bac 3R, P, tested oxidized and reduced]" measured_parameter="MIC E.facaelis" number=64
seq_string="RRRLCPIVIRVCRR [Bac 3R, P, (V), tested oxidized and reduced]" measured_parameter="MIC E.facaelis" number=32
seq_string="RRLCRIVVIRVCRR [Bac 2R, tested oxidized and reduced]" measured_parameter="MIC E.facaelis" number=4

Here is the next item to consider.
IN: Any idea what MIC E.facaelis was measured for RLCRIVPVIRVCR [Bac P, tested oxidized and reduced] ?
OUT: 32

----------
Below: a set of entries, each annotated with reported Minimal Agglutinating Concentration, Oxidized Form.
System: Human Red Blood Cells
Where no end group is shown, it is not given here.
Respond numerically; units are µg/mL and should not be typed.

substance="RRLCRIVVIRVCRR [Bac 2R]" number=64
substance="RLCRIVWVIRVCR [Bac W]" number=32
substance="RLCRIVPVIRVCR [Bac P]" number=64
substance="RRLCRIVWVIRVCRR [Bac 2R, W]" number=32

IN: Request: Minimal Agglutinating Concentration, Oxidized Form, test system Human Red Blood Cells, entry RICRIVVIRCIR-NH2 (cysteine pairing not given here) [Bac 2I-NH2]
OUT: 32

IN: Request: Minimal Agglutinating Concentration, Oxidized Form, test system Human Red Blood Cells, entry RRRCPIVVIRVCRR [Bac 3R, P]
OUT: 64
